Where these numbers come from: patent US8846704B2

- target.desc: BaF3 TELJAK3 cells (Homo sapiens, UniProt P52333)
- Construct: fused on or other part: TEL (ETV6) N-terminal part, coding nucleotides 1-487, serves as the oligomerising partner; It is fused through a Sal I site to the JAK3 kinase domain and expressed from pTRE2 in BaF3 cells bearing pTET-off; P41212 (Transcription factor ETV6)
- Sequence (P52333 whole entry, change not shown, the tested form may be a part): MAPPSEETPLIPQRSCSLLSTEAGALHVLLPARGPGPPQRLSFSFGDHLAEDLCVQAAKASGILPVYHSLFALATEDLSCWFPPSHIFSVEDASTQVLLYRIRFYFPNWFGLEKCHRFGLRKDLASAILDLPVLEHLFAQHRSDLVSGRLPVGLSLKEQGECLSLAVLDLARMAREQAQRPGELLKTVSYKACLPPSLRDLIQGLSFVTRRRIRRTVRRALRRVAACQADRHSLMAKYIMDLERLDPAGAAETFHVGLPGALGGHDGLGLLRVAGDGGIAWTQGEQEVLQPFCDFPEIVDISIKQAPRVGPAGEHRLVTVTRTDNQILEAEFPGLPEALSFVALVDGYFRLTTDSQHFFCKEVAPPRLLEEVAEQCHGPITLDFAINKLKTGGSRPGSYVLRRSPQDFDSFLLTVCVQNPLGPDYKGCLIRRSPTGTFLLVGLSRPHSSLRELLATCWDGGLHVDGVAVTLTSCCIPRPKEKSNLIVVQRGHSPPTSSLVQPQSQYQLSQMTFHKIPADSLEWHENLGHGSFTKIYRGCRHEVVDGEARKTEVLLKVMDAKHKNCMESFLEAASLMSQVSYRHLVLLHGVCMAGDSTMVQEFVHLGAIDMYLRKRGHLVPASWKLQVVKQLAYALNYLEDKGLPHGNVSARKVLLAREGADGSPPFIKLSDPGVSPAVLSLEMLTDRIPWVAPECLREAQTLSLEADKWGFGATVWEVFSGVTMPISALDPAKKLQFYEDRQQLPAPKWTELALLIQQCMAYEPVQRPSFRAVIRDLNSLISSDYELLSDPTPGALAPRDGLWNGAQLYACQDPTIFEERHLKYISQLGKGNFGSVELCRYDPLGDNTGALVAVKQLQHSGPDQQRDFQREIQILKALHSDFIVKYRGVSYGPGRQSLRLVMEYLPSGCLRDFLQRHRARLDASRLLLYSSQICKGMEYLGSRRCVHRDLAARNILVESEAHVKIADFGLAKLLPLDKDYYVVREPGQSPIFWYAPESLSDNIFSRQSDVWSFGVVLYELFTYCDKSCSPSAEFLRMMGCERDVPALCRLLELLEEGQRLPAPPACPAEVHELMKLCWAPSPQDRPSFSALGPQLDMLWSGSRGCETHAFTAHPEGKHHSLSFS
- experiment.description: Cellular screening, BaF3 TEL:JAK3 cells, Alamar Blue
- Format: cell-based
- condition.info: 40 hr, read-out: BafT_J3 IC50_nM
Parameter GI50: see the listing below.
property.name: GI50

[[record]]
compound_smiles = "Cc1cnc(Nc2ccc(N3CCOCC3)cc2)nc1Sc1ccc(N2C(=O)C=CC2=O)cc1"
result = "< 5 µM"

[[record]]
compound_smiles = "C=CC(=O)Nc1ccc(Sc2ccnc(Nc3cccc(OC)c3)n2)cc1"
result = "< 1 µM"

[[record]]
compound_smiles = "C=CC(=O)Nc1ccc(Sc2ccnc(Nc3ccc(C(=O)OC)cc3)n2)cc1"
result = "< 5 µM"

[[record]]
compound_smiles = "N#CCc1ccc(Sc2ccnc(Nc3ccc(N4CCOCC4)cc3)n2)cc1"
result = "> 20 µM"

[[record]]
compound_smiles = "C=CC(=O)Nc1ccc(Sc2nc(Nc3ccccc3O)ncc2C)cc1"
result = "< 20 µM"

